- method summary: Primary redox qHTS assay for identification of artifact compounds. (AID 1845223);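 further: 0% = DMSO and 100% = reference compound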
- test context: Amplex Red/HRP redox cycling with DTT, fluorescence; series mostly up to 53.8 µM
- Text: PI: Alexander Tropsha Ph.D. UNC Eshelman School of Pharmacy University of North Carolina, Chapel Hill, North Carolina Hits from high-throughput screening (HTS) of chemical libraries are often false positives due to their interference with the assay detection technology. […] Using these curated datasets, we developed and validated several Quantitative Structure-Interference Relationship (QSIR) models to predict nuisance behavior. […]
Results filed as inconclusive are left out. Activity calls are given as the source filed them. The call rests on the fitted dose curve; in most records, active means well fitted activation curve with a large enough effect; inconclusive means small, poorly fitted or top-dose-only effect; inactive means flat fitted curve, though single readings scatter.
measured metric: redox activity (% of DA3003)

See these solved cases before continuing.
compound | redox activity (% of DA3003)
NC(=O)N1CCC(CC(=O)N2CCC(C3c4ncc(Br)cc4CCc4cc(Cl)cc(Br)c43)CC2)CC1 (stereo not given) | inactive
C=C1C(=O)OC2C=C(C)CC/C=C(\CO)CC(O)C12 (stereo not given) | inactive
Cc1cnc(-c2ccccc2C(C)C)nc1NCc1ccc(-n2ccnn2)cc1 | inactive
C=C(C)Cn1c(SCC(=O)c2cccs2)nc2sc3c(c2c1=O)CCCC3 | inactive
CC(=O)OC1C(OC(=O)c2ccccc2)C2C(=C(C)CCC2(C)C)C23CCC(C)(C2)C(=O)CC13 (stereo not given) | inactive

For every record below, what is its redox activity (% of DA3003)?
1. O=C(NCCN1CCC(n2c(=O)[nH]c3ccccc32)CC1)c1ccc2ccccc2c1
2. COc1ccc2c(c1O[C@H]1CCNC1)CCC2

inactive
inactive

Provide reported redox activity (% of DA3003) for each item, in the same order as listed.
1. COc1cc2c(cc1-c1c(C)noc1C)ncc1[nH]c(=O)n(C(C)c3ccccn3)c12 (stereo not given)
2. CC#CC(=O)Nc1ccc2ncnc(Nc3cccc(Br)c3)c2c1
3. CO[C@@H]1[C@H](O)CCC2(CO2)[C@H]1[C@@]1(C)O[C@@H]1CC=C(C)C (stereo not given in full)

1: inactive; 2: inactive; 3: inactive

====

Please provide measured activity change, negative = cytotoxicity for the entries that follow.
- method summary: P-glycoprotein substrates identified in KB-8-5-11 adenocarcinoma cell line, qHTS therapeutic library screen (AID 1346987); further: nearly all actives have a fitted effect of over 65% in size; on activity change, negative = cytotoxicity: on the % scale 0 is the no-effect control and ±100 the full control effect
- test context: KB-8-5-11 (P-gp overexpressing) viability, CellTiter-Glo, 72 h; series mostly up to 44.5 µM
- Protocol: The ATP-binding cassette transporters P-glycoprotein (P-gp) is known to limit brain penetration of many chemotherapy drugs. […] All cell lines were plated into 1536-well plates at 500 cells/well in 5 uL media. […] CellTiter-Glo reagent (Promega) was dispensed into the wells, incubated for 5 min and luminescence was read on a ViewLux instrument (Perkin-Elmer). […]
Results filed as inconclusive are left out. Activity calls are given as the source filed them. Calls follow the shape of the dose curve; as a rule, active = well fitted inhibition curve with a large enough effect; inconclusive = small, poorly fitted or top-dose-only effect; inactive = flat fitted curve, though single readings scatter. Where a SMILES comes first, the peptide text is derived from it. [ ]: non-standard residue; d: D form. Hyp = O=C(O)[CH]1C[CH](O)CN1; Phe(ol) = N[CH](CO)Cc1ccccc1; Iva = CC[C](C)(N)C(=O)O; Aib = CC(C)(N)C(=O)O

List the reported activity change, negative = cytotoxicity of each compound below.
1. CCC(C)(NC(=O)C(CCC(N)=O)NC(=O)C1CC(O)CN1C(=O)C(C)(C)NC(=O)C(C)(C)NC(=O)C(CC(C)C)NC(=O)CNC(=O)C(NC(=O)C(C)(C)NC(=O)C(C)(C)NC(=O)C(C)(C)NC(=O)C(Cc1ccccc1)NC(C)=O)C(C)C)C(=O)N1CC(O)CC1C(=O)NC(C)(C)C(=O)NC(CO)Cc1ccccc1 (stereo not drawn) (Ac-F[Aib][Aib][Aib]VGL[Aib][Aib][Hyp]Q[Iva][Hyp][Aib][Phe(ol)]; configuration not given here)
2. CCC(C)(OC(C)=O)C(=O)O[C@H]1[C@H](OC(C)=O)[C@]2(CO)[C@H](O)[C@H](O)[C@]3(C)C(=CCC4[C@@]5(C)CC[C@H](O[C@@H]6O[C@H](C(=O)O)[C@@H](O)[C@H](O[C@@H]7OC[C@H](O)[C@H](O[C@@H]8OC[C@H](O)[C@H](O)[C@H]8O)[C@H]7O)[C@H]6O[C@@H]6O[C@H](CO)[C@@H](O)[C@H](O)[C@H]6O)C(C)(C)C5CC[C@]43C)[C@@H]2CC1(C)C (stereo partly drawn)
3. C=CC(C)(O)CC/C=C(\C)C(=O)OC1C(O)C(CO)OC(OC(=O)C23CCC(C)(C)CC2C2=CCC4C5(C)CCC(OC6OC(COC7OCC(OC(C)=O)C(O)C7OC7OC(COC(C)=O)C(O)C(O)C7OC(C)=O)C(O)C(O)C6OC6OCC(O)C(O)C6O)C(C)(C)C5CCC4(C)C2(C)C(O)C3O)C1OC1OCC(OC2OCC(O)C(OC3OCC(O)C(O)C3O)C2O)C(O)C1O (stereo not drawn)

-10.8% [at 9.29 µM] (inactive)
-29% [at 9.29 µM] (inactive)
-2.64% [at 5.11 µM] (inactive)

====

- method summary: P-glycoprotein substrates identified in KB-8-5-11 adenocarcinoma cell line, qHTS therapeutic library screen (AID 1346987); further: nearly all actives have a fitted effect of over 65% in size
- test context: KB-8-5-11 (P-gp overexpressing) viability, CellTiter-Glo, 72 h; series mostly up to 44.5 µM
Inconclusive results are not listed. Active and inactive are the calls of the source. Calls follow the shape of the dose curve; as a rule, active = well fitted inhibition curve with a large enough effect; inconclusive = small, poorly fitted or top-dose-only effect; inactive = flat fitted curve, though single readings scatter.
Outcomes you can answer with include only these: t (active), f (inactive)

Please review the following examples before continuing.
compound | label class
Cn1ncc2cc(-c3cnc(N)c(Cl)c3N3CCC4(CCNC4=O)CC3)ccc21 | f
C[C@@]12C(=O)N(c3ccc(C(=O)Nc4cccc5cccnc45)cc3)C(=O)[C@@H]1[C@@H]1C=C[C@H]2C1 | f
COc1cc(NC(=O)c2cccc(-n3cc(NC(=O)Nc4cccc(C)c4)cn3)c2)cc(OC)c1OC | f

Entry O=C1O[C@H]2[C@H](O)[C@@H]1OC(O)[C@H]2O (stereo partly drawn) : call = ?
f

Called result for `O=C(Nc1cc(C(F)(F)F)cc(C(F)(F)F)c1)c1cnc(Cl)nc1C(F)(F)F`
t

Recorded test outcome, item `C[C@H](/C=C/[C@H](C)C(C)(C)O)[C@H]1CC[C@H]2/C(=C/C=C3C[C@@H](O)C[C@H](O)C3)CCC[C@]12C`
t

Hello, I am checking results. What call was entered for `CCCC1(CCC)CCC2(CCN(CCCN(CC)CC)C2)CC1` ?
t

I would be grateful if you could indicate the recorded call for `COCc1c(Cl)ccc2c1CC[C@H]2c1ncc[nH]1` .
f

Could you check what this test reported for `CC(C)c1c(O)ccc2c1CC[C@H]1C(C)(C)CCC[C@]21C` ?
f

====

- Test system: Zika virus NS2B-NS3 protease (linked construct)
- method summary: 384 well plate NINDS Rhodamine confirmatory qHTS for Zika virus inhibitors (AID 1347164);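 further: fluorescence from protease cleavage of Ac-LKRR-rhodamine 110 substrate; nearly all actives have a fitted effect of over 65% in size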
- test context: rhodamine-110 peptide substrate fluorescence; series mostly up to 100 µM
Inconclusive results are not listed. Calls of active or inactive are those of the source. Calls follow the shape of the dose curve; as a rule, active = well fitted inhibition curve with a large enough effect; inconclusive = small, poorly fitted or top-dose-only effect; inactive = no such curve, though single readings can be large or run the other way.
Your reply should match one of these outcome classes. active, inactive

Examples from the recorded data:
compound | label class
N#Cc1ccc(N2N=C3c4ccc(C(=O)O)cc4CC[C@@H]3[C@@H]2C2CCCC2)cc1Cl | active
CC#C[C@@H](CC(=O)O)c1ccc(OCc2cccc(-c3ccc(C(F)(F)F)cc3)c2)cc1 | active

How was O=C(O)c1cccc(-c2ccc(-c3cn(C(=O)N4CCCCC4Cc4ccccc4)nn3)cc2)c1 (stereo not given) classified in this test?
inactive

Each compound tested received a call. Report the one for `O=C(O)c1ccc(N2C(=O)/C(=C/c3ccc(-c4ccc([N+](=O)[O-])cc4)o3)C=C2c2ccccc2)cc1` .
inactive

How was `O=C(O)c1cc(N(Cc2ccc(C3CCCCC3)cc2)C(=O)c2ccc(Oc3ccccc3)cc2)ccc1O` classified in this test?
inactive

Called result for `CCCCCc1ccc(/C=C/C(=O)Nc2cc(Cl)ccc2C(=O)O)cc1`
active

Just curious, what result did CC(O)(C(=O)O)C1CCC2(C)C1CCC1(C)C2CCC2C3(C)CCC(O)C(C)(COC4OC(CO)C(O)C(O)C4O)C3CCC21C (stereo not given) get here?
active

Check the results log: what was the call for `Cc1noc(-c2ccc(-c3ccc(CC(=O)O)cc3)cc2)c1NC(=O)O[C@H](C)c1ccccc1Cl` ?
active

Dear colleague, could you share the recorded outcome for `COc1ccc(-c2ccccc2)cc1NS(=O)(=O)c1cc(Cl)cc(Cl)c1O` when you have a moment?
active

Dear all, I need the recorded test outcome for `O=S(=O)(Nc1cc(Cl)c(Oc2cnc3ccccc3c2)c(Cl)c1)c1ccc(Cl)cc1Cl` , thank you.
active

====

- Tested on: Tov112D
- method summary: Primary qHTS to identify gynecologic anti-cancer compounds using libraries of approved drugs and bioactive compounds (AID 1345084); further: nearly all actives have a fitted effect of over 55% in size
- test context: Gynecologic cancer cell panel viability, ATPlite luminescence, 48 h; series mostly up to 57.5 µM
Inconclusive results are not listed. Calls of active or inactive are those of the source. Calls come from the whole dose curve; as a rule, active = well fitted cell-killing curve with a large enough effect; inconclusive = small, poorly fitted or top-dose-only effect, or effect the other way; inactive = flat fitted curve, though single readings scatter.
Hi! Could you answer with just one of these? label 1 (active), label 0 (inactive)

Known results for compounds:
compound | label class
Cc1cc(Nc2nc(-c3ccccc3)nc3ccccc23)n[nH]1 | label 0
C[C@@H]1O[C@@H](O[C@H]2[C@@H]3C=CO[C@@H](O[C@@H]4O[C@H](CO)[C@@H](O)[C@H](O)[C@H]4O)[C@@H]3[C@@]3(CO)O[C@@H]23)[C@H](O)[C@H](OC(=O)/C=C/c2ccccc2)[C@H]1O | label 0
CC(=O)OC1CC2(C)C(CCC(C)C23Cc2c(O)cc(CO)c(C=O)c2O3)C(C)(C)C1O (configuration not stated) | label 0

GET /call?item= `CC#C[C@@H](CC(=O)O)c1ccc(OCc2cccc(-c3ccc(C(F)(F)F)cc3)c2)cc1` returns the recorded outcome of this test.
label 0

Please state the recorded outcome for this compound: `FC(F)(F)c1ccc(/C=C/c2nc(COc3ccc(CCCCn4ccnn4)cc3)co2)cc1`
label 0

Hey, what did the test say about Cc1ccccc1C(C(=O)NC1CCCCC1)N(C(=O)Cn1cnc2ccccc21)c1cccc(F)c1 (configuration not stated) ?
label 0

Dear all, I need the recorded test outcome for `CCn1c(=O)c(-c2ccc(-c3cncs3)cc2Cl)cc2cnc(Nc3ccc(N4CCN(C)CC4)cc3)nc21` , thank you.
label 0

Record request — test call for `Fc1ccc(-c2nc(-c3c(F)cccc3F)[nH]c2-c2ccncc2)cc1`
label 0

Any idea what this test logged for `CC[C@@H]1C[C@]1(NC(=O)[C@@H]1C[C@@H]2CN1C(=O)[C@H](C(C)(C)C)NC(=O)OCC(C)(C)CCCCc1cccc3c1CN(C3)C(=O)O2)C(=O)NS(=O)(=O)C1CC1` ?
label 0

Call for entry `CCC[C@H](N[C@H]1CCc2cc(F)cc(F)c2C1)C(=O)Nc1cn(C(C)(C)CNCC(C)(C)C)cn1` :
label 0

Short answer needed: outcome of this test for `CC(C)NCCCn1c(Sc2cc3c(cc2I)OCO3)nc2c(N)ncnc21` ?
label 1

Would you mind telling me which call this test gave CCOC(=O)N1c2ccc(C(F)(F)F)cc2C(N(Cc2cc(C(F)(F)F)cc(C(F)(F)F)c2)C(=O)OC)CC1CC (configuration not stated) ?
label 0

Check the results log: what was the call for `CCCCOc1ccc(S(=O)(=O)n2c(C)nc3ccccc32)cc1` ?
label 0

I would be grateful if you could indicate the recorded call for `Cc1c(C(=O)NCc2cccnc2)nn(-c2ccc(Cl)cc2Cl)c1-c1ccc(Cl)cc1` .
label 0

Test call for this compound, please: CCCN(CCc1ccsc1)C1CCc2c(O)cccc2C1 (configuration not stated)
label 0

Short answer needed: outcome of this test for `Cc1cccc(-c2[nH]ncc2-c2ccc(F)c(-c3cnn(CCO)c3)c2)n1` ?
label 0

Call for entry CC(=O)C=C=C1C(C)(C)CC(O)CC1(C)O[C@@H]1O[C@H](CO[C@H]2OC[C@](O)(CO)[C@H]2O)[C@@H](O)[C@H](O)[C@H]1O (some centres not stated) :
label 0
